Cited source for all entries: patent US20260091020A1

# assayProtocol: Plasma PK of ANEB-001 and THC, 30 mg or 10 mg oral Compound 1 with 21 mg THC (Example 4)
# Type: in vivo, human
# runParameters: human, in vivo, 21 mg THC + 30 mg ANEB-001; 00H00M; read-out: THC in Plasma (concentration), Mean
metric: concentration at 0 h (ng/mL)

>  <molecule>
CCCCCc1cc(O)c2c(c1)OC(C)(C)[C@@H]1CCC(C)=C[C@@H]21 [THC, Δ9-tetrahydrocannabinol]

>  <measuredValue>
0.0163

$$$$

---

# assayProtocol: Plasma PK of ANEB-001 and THC, 50 and 100 mg oral Compound 1 with THC (Example 2)
# Type: in vivo, human
# runParameters: human, in vivo, 10 mg THC + Placebo; 4 hrs; read-out: THC Concentration in Plasma, Mean

>  <molecule>
CCCCCc1cc(O)c2c(c1)OC(C)(C)[C@@H]1CCC(C)=C[C@@H]21 [THC, Δ9-tetrahydrocannabinol]

>  <concentration at 4 h>
0.455 ng/mL

$$$$

---

# assayProtocol: Plasma PK of ANEB-001 and THC, 50 and 100 mg oral Compound 1 with THC (Example 2)
# Assay type: in vivo, human
# runParameters: human, in vivo, 10 mg THC + Placebo; 4 hrs; read-out: THC Concentration in Plasma, Median
metric: concentration at 4 h (ng/mL)

>  <compound>
CCCCCc1cc(O)c2c(c1)OC(C)(C)[C@@H]1CCC(C)=C[C@@H]21 [THC, Δ9-tetrahydrocannabinol]

>  <metric>
concentration at 4 h

>  <unitsLabel>
ng/mL

>  <measuredValue>
0.443

$$$$

---

# assayProtocol: Plasma PK of ANEB-001 and THC, 50 and 100 mg oral Compound 1 with THC (Example 2)
# Assay type: in vivo, human
# runParameters: human, in vivo, 10 mg THC + 50 mg ANEB-001; read-out: THC plasma AUClast, Median
metric: AUC(0-t)

>  <compound>
CCCCCc1cc(O)c2c(c1)OC(C)(C)[C@@H]1CCC(C)=C[C@@H]21 [THC, Δ9-tetrahydrocannabinol]

>  <metric>
AUC(0-t)

>  <measuredValue>
5.51 ng·h/mL

$$$$

---

# assayProtocol: Plasma PK of ANEB-001 and THC, 50 and 100 mg oral Compound 1 with THC (Example 2)
# Type: in vivo, human
# runParameters: human, in vivo, 10 mg THC + 50 mg ANEB-001; 1 hrs; read-out: THC Concentration in Plasma, Median

>  <compound>
CCCCCc1cc(O)c2c(c1)OC(C)(C)[C@@H]1CCC(C)=C[C@@H]21 [THC, Δ9-tetrahydrocannabinol]

>  <concentration at 1 h>
2.6 ng/mL

$$$$

---

# assayProtocol: Plasma PK of ANEB-001 and THC, 30 mg or 10 mg oral Compound 1 with 21 mg THC (Example 4)
# Type: in vivo, human
# runParameters: human, in vivo, 21 mg THC + 30 mg ANEB-001; 01H00M; read-out: THC in Plasma (concentration), Median

>  <compound>
CCCCCc1cc(O)c2c(c1)OC(C)(C)[C@@H]1CCC(C)=C[C@@H]21 [THC, Δ9-tetrahydrocannabinol]

>  <concentration at 1 h (ng/mL)>
7.31

$$$$

---

# assayProtocol: Plasma PK of ANEB-001 and THC, 30 mg or 10 mg oral Compound 1 with 21 mg THC (Example 4)
# Assay type: in vivo, human
# runParameters: human, in vivo, 21 mg, 21 mg THC + Placebo; 02H00M; read-out: THC in Plasma (concentration), Median

>  <compound>
CCCCCc1cc(O)c2c(c1)OC(C)(C)[C@@H]1CCC(C)=C[C@@H]21 [THC, Δ9-tetrahydrocannabinol]

>  <concentration at 2 h, ng/mL>
1.86

$$$$

---

# assayProtocol: Plasma PK of ANEB-001 and THC, 50 and 100 mg oral Compound 1 with THC (Example 2)
# Type: in vivo, human
# runParameters: human, in vivo, 10 mg THC + 50 mg ANEB-001; 5 hrs; read-out: THC Concentration in Plasma, Median
# Experimental: A phase 2 clinical study was conducted using the design outlined in FIG. 1. Briefly, 60 adult healthy volunteers ages 18-45 (20 per arm) were selected for a randomized, double blind placebo-controlled study. Volunteers were divided into three groups: (1) THC (Δ9-Tetrahydrocannabinol, 10.5 mg)+placebo; (2) THC (10.5 mg)+Compound 1 (50 mg); and (3) THC (10.5 mg)+Compound 1 (100 mg). […] Following the general methods of Example 1, pharmacodynamic properties were measured for Compound 1 (FIGS. 13A-13F).
metric: concentration at 5 h (ng/mL)

>  <molecule>
CCCCCc1cc(O)c2c(c1)OC(C)(C)[C@@H]1CCC(C)=C[C@@H]21 [THC, Δ9-tetrahydrocannabinol]

>  <metric>
concentration at 5 h

>  <unitsLabel>
ng/mL

>  <measuredValue>
0.264

$$$$

---

# measuredTarget: CB1 [CNR1] (Homo sapiens, UniProt P21554)
# Sequence (P21554 whole entry): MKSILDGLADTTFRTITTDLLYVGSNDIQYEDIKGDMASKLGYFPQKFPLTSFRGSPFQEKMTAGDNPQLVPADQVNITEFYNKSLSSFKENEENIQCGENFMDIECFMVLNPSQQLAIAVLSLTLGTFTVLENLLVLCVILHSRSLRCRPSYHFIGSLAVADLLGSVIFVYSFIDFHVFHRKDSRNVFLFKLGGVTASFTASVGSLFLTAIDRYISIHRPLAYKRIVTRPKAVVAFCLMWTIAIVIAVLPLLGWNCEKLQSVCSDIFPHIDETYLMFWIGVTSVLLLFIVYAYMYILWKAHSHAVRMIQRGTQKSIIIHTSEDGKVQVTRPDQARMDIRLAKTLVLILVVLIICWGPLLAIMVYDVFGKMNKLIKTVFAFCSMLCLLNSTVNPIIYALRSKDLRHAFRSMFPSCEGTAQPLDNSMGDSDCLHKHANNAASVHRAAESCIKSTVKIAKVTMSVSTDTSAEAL
# assayProtocol: PathHunter GPCR Biosensor cAMP assay, CNR1 agonist mode
# runParameters: Gi cAMP, 20 μM Forskolin
pEC50: −log10 of the molar value.
Attribute: pEC50

>  <compound>
CC(C)(NC(=O)N1CC(OC(c2ccc(Cl)cc2)c2ccccc2C(F)(F)F)C1)C(=O)O (centres unmarked)

>  <pEC50>
< 6.00

$$$$
>  <compound>
CC(C)(CO)NC(=O)N1CC(OC(c2ccc(Cl)cc2)c2ccccc2C(F)(F)F)C1 (centres unmarked)

>  <pEC50>
< 6.00

$$$$

---

# assayProtocol: Plasma PK of ANEB-001 and THC, 50 and 100 mg oral Compound 1 with THC (Example 2)
# Type: in vivo, human
# runParameters: human, in vivo, 10 mg THC + 50 mg ANEB-001; 0 hrs; read-out: THC Concentration in Plasma, Median
# Description: A phase 2 clinical study was conducted using the design outlined in FIG. 1. Briefly, 60 adult healthy volunteers ages 18-45 (20 per arm) were selected for a randomized, double blind placebo-controlled study. Volunteers were divided into three groups: (1) THC (Δ9-Tetrahydrocannabinol, 10.5 mg)+placebo; (2) THC (10.5 mg)+Compound 1 (50 mg); and (3) THC (10.5 mg)+Compound 1 (100 mg). […] Following the general methods of Example 1, pharmacodynamic properties were measured for Compound 1 (FIGS. 13A-13F).
metric: concentration at 0 h

>  <compound>
CCCCCc1cc(O)c2c(c1)OC(C)(C)[C@@H]1CCC(C)=C[C@@H]21 [THC, Δ9-tetrahydrocannabinol]

>  <metric>
concentration at 0 h

>  <measuredValue>
0 ng/mL

$$$$
